All figures here come from paper PMC6331909.

Target Desc: PPARα (Homo sapiens)
Construct: gene PPARA
Sequence (Q07869 196-468 limits assumed): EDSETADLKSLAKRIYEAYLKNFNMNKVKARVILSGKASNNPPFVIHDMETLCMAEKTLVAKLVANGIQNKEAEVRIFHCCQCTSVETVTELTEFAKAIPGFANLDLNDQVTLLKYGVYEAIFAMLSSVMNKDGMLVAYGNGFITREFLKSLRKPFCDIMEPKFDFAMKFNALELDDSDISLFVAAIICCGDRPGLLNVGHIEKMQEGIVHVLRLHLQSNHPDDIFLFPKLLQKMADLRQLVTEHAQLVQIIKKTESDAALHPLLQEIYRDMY
Protocol Notes: TR-FRET competitive binding assay
Recorded Metric: IC50 (nM)
Give bare numbers, in nM.

Notebook: `CCC(=O)NC[C@H](Cc1ccc(OCCc2nc(-c3ccccc3)oc2C)cc1)N/C(C)=C\C(=O)c1ccc(C(F)(F)F)cc1` , IC50 read as 227
